Catalogue of compounds with associated MFC
- Test system: Candida albicans
- assay-method-text: Fungicidal activity against Candida albicans MTCC 7315 incubated for 24 hrs followed by transfer of microbial suspension to Sabouraud dextrose agar plates and measured after 24 hrs post transfer
- Assay type: functional
- measurement-context: MTCC 7315, 24 h
Numbers only here, please. The scale is µg/mL.

Previously resolved entries follow.
| compound | MFC, µg/mL |
| --- | --- |
| CN1CCN(C(=O)c2nc(-c3ccccc3)c3c(C(F)(F)F)cc(-c4ccccc4)nc3n2)CC1 | 62.5 |
| Clc1ccc(COC(Cn2ccnc2)c2ccc(Cl)cc2Cl)c(Cl)c1 (stereo not drawn) | 15.6 |
| O=C(NCCO)c1nc(-c2ccccc2)c2c(C(F)(F)F)cc(-c3ccccc3)nc2n1 | 62.5 |
| O=C(NCc1ccccc1)c1nc(-c2ccccc2)c2c(C(F)(F)F)cc(-c3ccccc3)nc2n1 | 62.5 |
| O=C(c1nc(-c2ccccc2)c2c(C(F)(F)F)cc(-c3ccccc3)nc2n1)N1CCN(CCO)CC1 | 62.5 |

Could you share which MFC value was measured for "COc1ccc(-c2nc(C(=O)N3CCN(C)CC3)nc3nc(-c4ccccc4)cc(C(F)(F)F)c23)cc1" ?
62.5

Could you share which MFC value was measured for "CCCNC(=O)c1nc(-c2ccccc2)c2c(C(F)(F)F)cc(-c3ccccc3)nc2n1" ?
31.2

Could you share which MFC value was measured for "O=C(c1nc(-c2ccccc2)c2c(C(F)(F)F)cc(-c3ccccc3)nc2n1)N1CCCC1" ?
31.2

====

Catalogue of compounds with associated MFC
- System: Candida albicans
- assay-method-text: Fungicidal activity against Candida albicans MTCC 1637 incubated for 24 hrs followed by transfer of microbial suspension to Sabouraud dextrose agar plates and measured after 24 hrs post transfer
- Assay type: functional
- measurement-context: MTCC 1637, 24 h
# include the unit after the value

Could you share which MFC value was measured for "COc1ccc(-c2nc(C(=O)N3CCN(C)CC3)nc3nc(-c4ccccc4)cc(C(F)(F)F)c23)cc1" ?
31.2 µg/mL

Could you share which MFC value was measured for "O=C(c1nc(-c2ccccc2)c2c(C(F)(F)F)cc(-c3ccccc3)nc2n1)N1CCN(CCO)CC1" ?
31.2 µg/mL

Could you share which MFC value was measured for "CN1CCN(C(=O)c2nc(-c3ccccc3)c3c(C(F)(F)F)cc(-c4ccccc4)nc3n2)CC1" ?
15.6 µg/mL

Could you share which MFC value was measured for "O=C(c1nc(-c2ccccc2)c2c(C(F)(F)F)cc(-c3ccccc3)nc2n1)N1CCCC1" ?
15.6 µg/mL

Could you share which MFC value was measured for Clc1ccc(COC(Cn2ccnc2)c2ccc(Cl)cc2Cl)c(Cl)c1 (stereo not given) ?
7.8 µg/mL

====

- Test system: Candida albicans
- assay-method-text: Antifungal activity against Candida albicans MTCC 227 after 24 hrs by well diffusion method
- Type: functional
- measurement-context: MTCC 227, 24 h
Catalogue of molecules with associated MIC
Numbers only here, please. The scale is µg/mL.

Previously resolved entries follow.
| molecule | units-text | recorded-measurement |
| --- | --- | --- |
| CN1CCN(C(=O)c2nc(-c3ccccc3)c3c(C(F)(F)F)cc(-c4ccccc4)nc3n2)CC1 | µg/mL | 3.9 |
| O=C(c1nc(-c2ccccc2)c2c(C(F)(F)F)cc(-c3ccccc3)nc2n1)N1CCN(CCO)CC1 | µg/mL | 7.8 |
| O=C(c1nc(-c2ccccc2)c2c(C(F)(F)F)cc(-c3ccccc3)nc2n1)N1CCCC1 | µg/mL | 15.6 |
| Clc1ccc(COC(Cn2ccnc2)c2ccc(Cl)cc2Cl)c(Cl)c1 (stereo unspecified) | µg/mL | 7.8 |
| CCCNC(=O)c1nc(-c2ccccc2)c2c(C(F)(F)F)cc(-c3ccccc3)nc2n1 | µg/mL | 31.2 |

For the next question, use this molecule.
Could you share which MIC value was measured for "COc1ccc(-c2nc(C(=O)N3CCN(C)CC3)nc3nc(-c4ccccc4)cc(C(F)(F)F)c23)cc1" ?
31.2
